tested on: Sindbis virus; experiment: Antiviral activity against Sindbis virus replication in BHK cells after 12 hrs by luciferase assay; format: functional, organism-based; conditions: in the assay text read “luciferase assay” for “XTT assay”
Quantity kind: pEC50
For clarity, pEC50 is expressed as the negative log10 of concentration in mol/L.

Memo: OC(C[C@@H]1COCCO1)C[C@@H]1COCCO1 , reported pEC50: 3.17

Memo: OC[C@@H]1COCCO1 , reported pEC50: 5.47

Memo: CC(O)[C@H]1COCCO1 (some centres not stated) , reported pEC50: 4.00

Memo: C(C[C@@H]1COCCO1)C[C@@H]1COCCO1 , reported pEC50: 4.85

Memo: C1CSC(C[C@H]2COCCO2)(C[C@@H]2COCCO2)SC1 , reported pEC50: 4.54

Memo: C(CC[C@@H]1COCCO1)CC[C@@H]1COCCO1 , reported pEC50: 2.82

Memo: C1CSC(C[C@H]2COCCO2)SC1 , reported pEC50: 3.00

----------
test system: Sindbis virus; assay: Antiviral activity against Sindbis virus replication in BHK cells after 12 hrs by luciferase assay; assay type: functional, organism-based; conditions: in the assay text read “luciferase assay” for “XTT assay”
Quantity kind: log10 EC50 (log10 of the value in mM)
Parameter value (number): base-10 log of EC50 in mM.

Memo: CN(C)CCCN1c2ccccc2Sc2ccc(Cl)cc21 [CHLORPROMAZINE] , reported log10 EC50: -2.09

Memo: ICC[C@@H]1COCCO1 , reported log10 EC50: -0.60

Memo: ClCCOC[C@H]1CO1 , reported log10 EC50: 0.00

Memo: OC[C@H]1COCCO1 , reported log10 EC50: 0.18

Memo: OCC[C@@H]1COCCO1 , reported log10 EC50: 0.15

Memo: COc1ccc(CCN(C)CCC[C@](C#N)(c2ccc(OC)c(OC)c2)C(C)C)cc1OC , reported log10 EC50: 0.11

Memo: C(CC[C@@H]1COCCO1)C[C@@H]1COCCO1 , reported log10 EC50: 0.18

----------
assay: Therapeutic index, ratio of EC50 for Sindbis virus to CC50 for BHK cells; assay type: cell-based; conditions: hamster, read-out: TI
I'd appreciate it if you could supply selectivity ratio values for the items below.

Memo: OC[C@@H]1COCCO1 , reported selectivity ratio: > 294

Memo: C(C[C@@H]1COCCO1)C[C@@H]1COCCO1 , reported selectivity ratio: > 71

----------
I'd appreciate it if you could supply CC50 values for the items below.
assay: Cytotoxicity against BHK cells by XTT assay; assay type: cell-based, Mesocricetus auratus; settings: hamster

Memo: C1CSC(C[C@H]2COCCO2)SC1 , reported CC50: > 1000 µM

Memo: C1CSC(C[C@H]2COCCO2)(C[C@@H]2COCCO2)SC1 , reported CC50: > 1000 µM

Memo: O=CC[C@H]1COCCO1 , reported CC50: > 5000 µM

Memo: ICC[C@@H]1COCCO1 , reported CC50: > 1000 µM

Memo: OC[C@@H]1COCCO1 , reported CC50: > 1000 µM

Memo: ON=C(C[C@@H]1COCCO1)C[C@@H]1COCCO1 , reported CC50: > 1000 µM

Memo: C(C[C@@H]1COCCO1)C[C@@H]1COCCO1 , reported CC50: > 1000 µM

Memo: OC[C@H]1COCCO1 , reported CC50: > 5000 µM

Memo: C1CSC(CC[C@@H]2COCCO2)SC1 , reported CC50: > 1000 µM

Memo: C(CC[C@@H]1COCCO1)C[C@@H]1COCCO1 , reported CC50: > 1000 µM

Memo: OCC[C@@H]1COCCO1 , reported CC50: > 1000 µM

Memo: O=C(C[C@@H]1COCCO1)C[C@@H]1COCCO1 , reported CC50: > 1000 µM

Memo: OC(CC[C@@H]1COCCO1)C[C@@H]1COCCO1 (stereo partly drawn) , reported CC50: > 1000 µM

Memo: ClCCOC[C@H]1CO1 , reported CC50: > 1000 µM

Memo: O=C(CC[C@@H]1COCCO1)C[C@@H]1COCCO1 , reported CC50: > 1000 µM

Memo: ClCCOC[C@@H]1CO1 , reported CC50: > 5000 µM

Memo: c1ccc(CCCC[C@@H]2COCCO2)cc1 , reported CC50: > 1000 µM

Memo: C1CSC(CC[C@@H]2COCCO2)(C[C@@H]2COCCO2)SC1 , reported CC50: > 1000 µM

Memo: OC(C[C@@H]1COCCO1)C[C@@H]1COCCO1 , reported CC50: > 1000 µM

Memo: C(C[C@@H]1COCCO1)C[C@H]1COCCO1 (mixture of isomers) , reported CC50: > 1000 µM

Memo: OCCC[C@@H]1COCCO1 , reported CC50: > 1000 µM

Memo: C1CSC(C[C@H]2COCCO2)(C[C@H]2COCCO2)SC1 , reported CC50: > 1000 µM

Memo: C(CC[C@@H]1COCCO1)CC[C@@H]1COCCO1 , reported CC50: > 1000 µM

Memo: CC(O)[C@H]1COCCO1 (stereo partly drawn) , reported CC50: 1000 µM

Memo: CN(C)CCCN1c2ccccc2Sc2ccc(Cl)cc21 , reported CC50: 100 µM

Memo: OCC[C@H]1COCCO1 , reported CC50: > 1000 µM

Memo: C(C[C@H]1COCCO1)C[C@H]1COCCO1 , reported CC50: > 1000 µM

Memo: CON=C(C[C@@H]1COCCO1)C[C@@H]1COCCO1 , reported CC50: > 1000 µM

Cited source: ChEMBL document CHEMBL1147175
